target or system: CFTR ΔF508 mutant (Homo sapiens, UniProt P13569, DEL508-508)
Construct: expressed in transfected cells; host or cells: CFBE41o- cells, adenoviral transduction
Sequence (P13569 with tags, fused parts or gaps DEL508-508): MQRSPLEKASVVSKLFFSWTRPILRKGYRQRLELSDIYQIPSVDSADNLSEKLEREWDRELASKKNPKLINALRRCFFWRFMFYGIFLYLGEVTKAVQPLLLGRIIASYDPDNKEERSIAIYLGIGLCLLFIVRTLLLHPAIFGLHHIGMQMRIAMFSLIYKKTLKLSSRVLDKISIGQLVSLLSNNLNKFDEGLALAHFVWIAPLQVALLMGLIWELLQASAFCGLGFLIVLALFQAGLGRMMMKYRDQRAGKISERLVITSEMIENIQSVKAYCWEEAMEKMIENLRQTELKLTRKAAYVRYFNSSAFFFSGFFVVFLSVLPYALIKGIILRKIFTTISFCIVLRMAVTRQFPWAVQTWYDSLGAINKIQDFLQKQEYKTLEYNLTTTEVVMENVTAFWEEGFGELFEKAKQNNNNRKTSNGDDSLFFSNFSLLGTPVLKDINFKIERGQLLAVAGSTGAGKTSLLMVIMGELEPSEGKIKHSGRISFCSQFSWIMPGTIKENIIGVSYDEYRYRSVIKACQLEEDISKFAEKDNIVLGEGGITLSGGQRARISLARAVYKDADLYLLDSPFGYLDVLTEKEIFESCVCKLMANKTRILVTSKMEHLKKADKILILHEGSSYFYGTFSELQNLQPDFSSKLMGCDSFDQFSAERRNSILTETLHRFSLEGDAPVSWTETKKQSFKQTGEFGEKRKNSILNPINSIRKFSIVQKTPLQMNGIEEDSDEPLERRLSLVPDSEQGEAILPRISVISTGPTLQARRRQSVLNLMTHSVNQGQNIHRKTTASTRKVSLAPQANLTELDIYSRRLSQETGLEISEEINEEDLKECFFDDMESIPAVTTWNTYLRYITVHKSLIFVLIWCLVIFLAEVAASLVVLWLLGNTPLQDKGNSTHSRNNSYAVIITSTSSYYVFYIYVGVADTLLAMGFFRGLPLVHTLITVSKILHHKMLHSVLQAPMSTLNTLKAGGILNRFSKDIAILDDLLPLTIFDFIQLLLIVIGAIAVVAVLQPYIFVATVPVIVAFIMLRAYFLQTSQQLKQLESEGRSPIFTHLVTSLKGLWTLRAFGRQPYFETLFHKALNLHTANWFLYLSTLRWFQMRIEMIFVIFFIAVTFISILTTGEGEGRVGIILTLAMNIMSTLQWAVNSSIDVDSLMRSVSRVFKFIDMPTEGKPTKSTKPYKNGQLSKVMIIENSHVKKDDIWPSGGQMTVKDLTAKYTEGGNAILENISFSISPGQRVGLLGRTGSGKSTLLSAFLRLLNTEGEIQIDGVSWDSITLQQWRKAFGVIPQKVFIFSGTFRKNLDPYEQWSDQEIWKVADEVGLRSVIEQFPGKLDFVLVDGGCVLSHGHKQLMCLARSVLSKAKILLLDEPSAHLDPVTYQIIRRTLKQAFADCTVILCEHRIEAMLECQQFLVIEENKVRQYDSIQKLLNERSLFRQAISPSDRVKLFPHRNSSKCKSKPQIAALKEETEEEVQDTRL
method description: YFP-halide influx assay for the CFTR-ΔF508 mutation (CFBE41o- cells)
Assay type: cell-based
condition label: forskolin 10.67 μM, from (1−F/F0) vs concentration plot
observed property: EC50

Returns the measured EC50 for the input molecule. Input: CN1CCC(O)(CNC(=O)c2ncc(S(=O)(=O)c3ccc(OC(F)(F)F)cc3)cc2N)CC1 [Compound 5] > 2000 nM

Returns the measured EC50 for the input molecule. Input: CC(CC(N)=O)NC(=O)c1ncc(S(=O)(=O)c2ccc(OC(F)(F)F)cc2)cc1N (stereo not drawn) [Compound 55] > 2000 nM

Returns the measured EC50 for the input molecule. Input: C[C@H](O)CNC(=O)c1ncc(S(=O)(=O)NCc2ccc(F)cc2)cc1N [Compound 267] > 667 nM

---

target or system: CFTR G551D mutant (Homo sapiens, UniProt P13569, G551D)
Construct: expressed in transfected cells; host or cells: HEK293 cells, reverse transfection with plasmids
Sequence (P13569 whole entry G551D): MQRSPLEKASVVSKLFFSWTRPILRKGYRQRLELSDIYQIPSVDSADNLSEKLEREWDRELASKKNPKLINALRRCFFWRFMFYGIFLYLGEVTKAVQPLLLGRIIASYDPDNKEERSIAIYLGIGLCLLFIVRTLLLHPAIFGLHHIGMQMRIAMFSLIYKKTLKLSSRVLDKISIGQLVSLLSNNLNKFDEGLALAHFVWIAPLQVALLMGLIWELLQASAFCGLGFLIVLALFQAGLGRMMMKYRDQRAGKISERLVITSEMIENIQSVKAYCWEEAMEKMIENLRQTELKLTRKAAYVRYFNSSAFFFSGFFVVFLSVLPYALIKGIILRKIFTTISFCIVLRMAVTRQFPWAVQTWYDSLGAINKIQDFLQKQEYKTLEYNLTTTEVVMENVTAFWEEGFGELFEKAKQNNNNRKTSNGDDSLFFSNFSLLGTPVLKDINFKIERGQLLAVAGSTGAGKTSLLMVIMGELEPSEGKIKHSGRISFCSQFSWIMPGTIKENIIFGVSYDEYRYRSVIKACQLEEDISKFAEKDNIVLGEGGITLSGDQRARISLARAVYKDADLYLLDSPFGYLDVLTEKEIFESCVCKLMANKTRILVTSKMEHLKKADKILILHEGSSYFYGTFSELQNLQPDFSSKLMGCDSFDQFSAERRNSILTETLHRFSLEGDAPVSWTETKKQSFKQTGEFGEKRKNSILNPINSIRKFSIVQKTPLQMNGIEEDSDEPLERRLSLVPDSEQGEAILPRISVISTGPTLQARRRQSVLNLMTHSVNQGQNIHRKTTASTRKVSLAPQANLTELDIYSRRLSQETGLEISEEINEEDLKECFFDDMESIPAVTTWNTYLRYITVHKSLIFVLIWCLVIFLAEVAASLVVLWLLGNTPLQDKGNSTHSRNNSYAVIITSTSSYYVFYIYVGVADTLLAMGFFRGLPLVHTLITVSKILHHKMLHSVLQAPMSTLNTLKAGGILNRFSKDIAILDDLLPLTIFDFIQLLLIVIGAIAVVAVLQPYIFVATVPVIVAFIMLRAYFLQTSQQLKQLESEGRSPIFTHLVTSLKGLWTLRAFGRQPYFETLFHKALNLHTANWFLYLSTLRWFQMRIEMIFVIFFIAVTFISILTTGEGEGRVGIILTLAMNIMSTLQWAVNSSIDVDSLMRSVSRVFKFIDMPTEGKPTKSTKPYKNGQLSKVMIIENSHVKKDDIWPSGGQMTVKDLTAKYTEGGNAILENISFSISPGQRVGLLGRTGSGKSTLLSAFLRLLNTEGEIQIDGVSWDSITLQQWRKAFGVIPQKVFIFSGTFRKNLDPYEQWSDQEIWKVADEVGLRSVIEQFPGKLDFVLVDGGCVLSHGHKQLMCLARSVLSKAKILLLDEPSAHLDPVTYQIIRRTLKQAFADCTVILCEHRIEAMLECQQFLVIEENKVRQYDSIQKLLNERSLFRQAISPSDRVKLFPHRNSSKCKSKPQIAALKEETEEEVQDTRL
method description: YFP-halide influx assay for the CFTR-G551D mutation (HEK293 cells)
Type: cell-based
condition label: forskolin 10.67 μM
Can you tell me % Activation for the items I'm about to list?
Reply with just the number (in %).

Returns the measured % Activation for the input compound. Input: COCCC(C)(O)CNC(=O)c1ncc(S(=O)(=O)c2ccc(C(F)(F)F)cc2F)cc1N (stereo not drawn) 71.9

Returns the measured % Activation for the input compound. Input: CC(C)C1(O)CN(C(=O)c2ncc(S(=O)(=O)c3ccc(C(F)(F)F)cc3F)cc2N)C1 68.0

Returns the measured % Activation for the input compound. Input: Nc1cc(S(=O)(=O)c2ccc(C(F)(F)F)cc2F)cnc1C(=O)N1CC(O)(C(F)(F)F)C1 74.1

---

target or system: CFTR G551D mutant (Homo sapiens, UniProt P13569, G551D)
method description: YFP-halide influx assay for the CFTR-G551D mutation (HEK293 cells)
condition label: forskolin 10.67 μM
Description: The YFP halide influx assay measured the functionality of the cystic fibrosis Transmembrane Conductance regulator (CFTR) channels. The assay was used to evaluate the capacity of compounds to increase the channel opening of existing mutant CFTR channels in the membrane. […] The I^−-induced quenching of fluorescence was recorded immediately after injection of I^− for 7 seconds. […]
pEC50: −log10 of the molar value.
Can you tell me pEC50 for the items I'm about to list?

Returns the measured pEC50 for the input molecule. Input: Nc1cc(S(=O)(=O)N2CC(F)(F)C2)cnc1C(=O)NCC(O)C(F)(F)F (stereo not drawn) < 5.00

Returns the measured pEC50 for the input molecule. Input: Nc1cc(S(=O)(=O)c2ccc(OC(F)(F)F)cc2)cnc1C(=O)N1CC[C@@H](F)C1 < 5.48

Returns the measured pEC50 for the input molecule. Input: CC(C)(CO)CNC(=O)c1ncc(S(=O)(=O)c2ccc(OC(F)(F)F)cc2)cc1N < 5.48

Returns the measured pEC50 for the input molecule. Input: CC(C)(CO)NC(=O)c1ncc(S(=O)(=O)c2ccc(C(F)(F)F)cc2)cc1N < 5.00

Returns the measured pEC50 for the input molecule. Input: Nc1cc(S(=O)(=O)N2CC[C@H](F)C2)cnc1C(=O)NCC(O)C(F)(F)F (stereo partly drawn) < 5.00

Returns the measured pEC50 for the input molecule. Input: CC(C)C(CO)NC(=O)c1ncc(S(=O)(=O)c2ccc(OC(F)(F)F)cc2)cc1N (stereo not drawn) < 5.00
